target: HLA-A*0301 (human)
PROPERTY MEASURED: binding affinity ratio (IC50 of standard peptide / IC50 of test peptide)

BINDER	MEASURED VALUE
PVVVGTTDR (modifications not checked) [HCV peptide … (polyprotein position 516)]	0.0008
IVGGVYLLPR (modifications not checked) [HCV peptide … (polyprotein position 30)]	0.0008
SASQLSAPSLK (modifications not checked) [HCV peptide … (polyprotein position 2207)]	0.0003
LIVFPDLGVR (modifications not checked) [HCV peptide … (polyprotein position 2612)]	0.0003
